Target: T1, recombinant human Sortilin (human, UniProt Q99523 78-830)
T1 construct: also called hSort; SORT1
Test: flow cytometry, 293 cells expressing recombinant human Sortilin, 10 ug/ml antibody
Property: MFI; scope: individual binders
quantity kind: MFI (MFI)

binder="anti-Sortilin antibody S-21 (antibody, V domains shown, IgG) VH: QVQLVQSGAEVKKPGSSVKVSCKASGGTFSSYAISWVRQAPGQGLEWMGSIIPIFGTANYAQKFQGRVTITADESTSTAYMELSSLRSEDTAVYYCARERRYDGYYYYYGMDVWGQGTTVTVSS VL: DIQMTQSPSSLSASVGDRVTITCRASQSISSYLNWYQQKPGKAPKLLIYAASSLQSGVPSRFSGSGSGTDFTLTISSLQPEDFATYYCQQKASLPFTFGGGTKVEIK" result_units=MFI value=9380
binder="anti-Sortilin antibody S-51 (antibody, V domains shown, IgG) VH: QVQLVESGGGVVQPGRSLRLSCAASGFTFSSYGMHWVRQAPGKGLEWVAVISYDGSNKYYADSVKGRFTISRDNSKNTLYLQMNSLRAEDTAVYYCAKGLEYYDSSRLYYPYYYYMDVWGKGTTVTVSS VL: EIVLTQSPATLSLSPGERATLSCRASQSVSSYLAWYQQKPGQAPRLLIYDASKRATGIPARFSGSGSGTDFTLTISSLEPEDFAVYYCQQRSNYPITFGGGTKVEIK" result_units=MFI value=12200
binder="anti-Sortilin antibody S-64 (antibody, V domains shown, IgG) VH: QVQLQESGPGLVKPSETLSLTCAVSGYSISSGYYWGWIRQPPGKGLEWIGSIYHSGSTYYNPSLKSRVTISVDTSKNQFSLKLSSVTAADTAVYYCARAEHRGPRYFDLWGRGTLVTVSS VL: DIQMTQSPSSLSASVGDRVTITCRASQSINSYLNWYQQKPGKAPKLLIYAASSLQSGVPSRFSGSGSGTDFTLTISSLQPEDFATYYCQQLDSTPITFGGGTKVEIK" result_units=MFI value=7930
binder="anti-Sortilin antibody S-10 (antibody, V domains shown, IgG) VH: QVQLVQSGAEVKKPGASVKVSCKASGYTFTSYGISWVRQAPGQGLEWMGWISAYNGNTNYAQKLQGRVTMTTDTSTSTAYMELRSLRSDDTAVYYCARDPGGYGPTLYYYYGMDVWGQGTTVTVSS VL: EIVMTQSPATLSVSPGERATLSCRASQSVSSNLAWYQQKPGQAPRLLIYGASTRATGIPARFSGSGSGTEFTLTISSLQSEDFAVYYCQQYADWPPITFGGGTKVEIK" result_units=MFI value=8660
binder="anti-Sortilin antibody S-9 (antibody, V domains shown, IgG) VH: QVQLVQSGAEVKKPGASVKVSCKASGYTFTSYGISWVRQAPGQGLEWMGWISAYNGNTNYAQKLQGRVTMTTDTSTSTAYMELRSLRSDDTAVYYCARDPGGYGPTLYYYYGMDVWGQGTTVTVSS VL: EIVMTQSPATLSVSPGERATLSCRASQSVSSNLAWYQQKPGQAPRLLIYGASTRATGIPARFSGSGSGTEFTLTISSLQSEDFAVYYCQQYNIYPLTFGGGTKVEIK" result_units=MFI value=10300
binder="anti-Sortilin antibody S-48 (antibody, V domains shown, IgG) VH: QVQLVESGGGVVQPGRSLRLSCAASGFTFSSYGMHWVRQAPGKGLEWVAVISYDGSNKYYADSVKGRFTISRDNSKNTLYLQMNSLRAEDTAVYYCARESGDRATLVYYYYYGMDVWGQGTTVTVSS VL: EIVMTQSPATLSVSPGERATLSCRASQSVSSNLAWYQQKPGQAPRLLIYSASTRATGIPARFSGSGSGTEFTLTISSLQSEDFAVYYCQQYNSWPITFGGGTKVEIK" result_units=MFI value=8140
binder="anti-Sortilin antibody S-22 (antibody, V domains shown, IgG) VH: QVQLVQSGAEVKKPGSSVKVSCKASGGTFSSYAISWVRQAPGQGLEWMGGIIPIFGTASYAQKFQGRVTITADESTSTAYMELSSLRSEDTAVYYCARQGRKTGYYYYYGMDVWGQGTTVTVSS VL: DIQMTQSPSTLSASVGDRVTITCRASQSISSWLAWYQQKPGKAPKLLIYKASSLESGVPSRFSGSGSGTEFTLTISSLQPDDFATYYCQQADGHITFGGGTKVEIK" result_units=MFI value=8940
binder="anti-Sortilin antibody S-58 (antibody, V domains shown, IgG) VH: QVQLQESGPGLVKPSETLSLTCAVSGYSISSGYYWGWIRQPPGKGLEWIGSIYHSGNTYYNPSLKSRVTISVDTSKNQFSLKLSSVTAADTAVYYCARGPPELGKMYFQHWGQGTLVTVSS VL: EIVLTQSPATLSVSPGERATLSCRASQSVSSNLAWYQQKPGQAPRLLIYGASTRATGIPARFSGSGSGTEFTLTISSLQSEDFAVYYCQQDRKGPLTFGGGTKVEIK" result_units=MFI value=7770
binder="anti-Sortilin antibody S-26 (antibody, V domains shown, IgG) VH: EVQLVESGGGLVKPGGSLRLSCAASGFTFSSYSMNWVRQAPGKGLEWVSSISSSSSYIYYADSVKGRFTISRDNAKNSLYLQMNSLRAEDTAVYYCARDRLGRGYKWNWFDPWGQGTLVTVSS VL: DIQMTQSPSSVSASVGDRVTITCRASQGIDSWLAWYQQKPGKAPKLLIYAASSLQSGVPSRFSGSGSGTDFTLTISSLQPEDFATYYCQQGNSLPPITFGGGTKVEIK" result_units=MFI value=9020
binder="anti-Sortilin antibody S-14 (antibody, V domains shown, IgG) VH: QVQLVQSGAEVKKPGASVKVSCKASGYTFTSYYMSWVRQAPGQGLEWMGIINPSGGSTSYAQKFQGRVTMTRDTSTSTVYMELSSLRSEDTAVYYCARDPSGIAAAGPASRYYYGMDVWGQGTTVTVSS VL: DIQMTQSPSSLSASVGDRVTITCRASQSISSYLNWYQQKPGKAPKLLIYGASSLQSGVPSRFSGSGSGTDFTLTISSLQPEDFATYYCQQHYVGPFTFGGGTKVEIK" result_units=MFI value=8010
